Assay system A. baumannii CDC-0083 producing NDM-1, PER-7, OXA-23, and OXA-69; read-out recorded as MIC.

**Query** Form: Entry = NCCCN1CCN(C(=O)N[C@@H](C(=O)N[C@H]2Cc3ccc(F)c(C(=O)O)c3OB2O)c2c(F)cc(O)c(O)c2Cl)C(=O)C1=O (single isomer, unassigned) [Example 27] | System = A. baumannii CDC-0083 producing NDM-1, PER-7, OXA-23, and OXA-69 | MIC = ____
**Result** 0.25 µg/mL

---
**Query** Form: Entry = NS(=O)(=O)Nc1cccc(C(NC(=O)N2CCN(Cc3c(F)cc(O)c(O)c3Cl)C(=O)C2=O)C(=O)N[C@H]2Cc3cccc(C(=O)O)c3OB2O)c1 (stereo partly shown) [Example 131] | System = A. baumannii CDC-0083 producing NDM-1, PER-7, OXA-23, and OXA-69 | MIC = ____
**Result** > 128 µg/mL

**Query** Form: Entry = NS(=O)(=O)c1cc(O)cc(C(NC(=O)N2CCN(Cc3c(F)cc(O)c(O)c3Cl)C(=O)C2=O)C(=O)N[C@H]2Cc3cccc(C(=O)O)c3OB2O)c1 (stereo partly shown) [Example 132] | System = A. baumannii CDC-0083 producing NDM-1, PER-7, OXA-23, and OXA-69 | MIC = ____
**Result** > 128 µg/mL

**Query** Form: Entry = O=C(O)c1c(F)ccc2c1OB(O)[C@@H](NC(=O)[C@H](NC(=O)N1CCNC1=O)c1c(F)cc(O)c(O)c1Cl)C2 (single isomer, unassigned) [Example 34] | System = A. baumannii CDC-0083 producing NDM-1, PER-7, OXA-23, and OXA-69 | MIC = ____
**Result** 0.5 to 1 µg/mL

**Query** Form: Entry = O=C(O)c1c(F)ccc2c1OB(O)[C@@H](NC(=O)C(NC(=O)N1CCN(CCBr)C(=O)C1=O)c1c(F)cc(O)c(O)c1F)C2 (stereo partly shown) [Example 38] | System = A. baumannii CDC-0083 producing NDM-1, PER-7, OXA-23, and OXA-69 | MIC = ____
**Result** 0.5 to 1 µg/mL

**Query** Form: Entry = CCN1CCN(C(=O)N[C@H](C(=O)N[C@H]2Cc3ccc(F)c(C(=O)O)c3OB2O)c2ccc(O)c(O)c2)C(=O)C1=O [Example 210] | System = A. baumannii CDC-0083 producing NDM-1, PER-7, OXA-23, and OXA-69 | MIC = ____
**Result** > 128 µg/mL

**Query** Form: Entry = O=C(O)c1ccc(C(NC(=O)c2c(F)cc(O)c(O)c2Cl)C(=O)N[C@H]2Cc3ccc(F)c(C(=O)O)c3OB2O)cc1F (stereo partly shown) [Example 71] | System = A. baumannii CDC-0083 producing NDM-1, PER-7, OXA-23, and OXA-69 | MIC = ____
**Result** 32 to 64 µg/mL

**Query** Form: Entry = CCN1CCN(C(=O)NC(C(=O)N[C@H]2Cc3cccc(C(=O)O)c3OB2O)c2cccc(NC(=O)c3ccc(O)c(O)c3Cl)c2)C(=O)C1=O (stereo partly shown) [Example 73] | System = A. baumannii CDC-0083 producing NDM-1, PER-7, OXA-23, and OXA-69 | MIC = ____
**Result** 32 to 64 µg/mL

**Query** Form: Entry = CCN1CCN(C(=O)N[C@@H](C(=O)N[C@H]2Cc3ccc(F)c(C(=O)O)c3OB2O)c2c(Cl)cc(O)c(O)c2F)C(=O)C1=O (single isomer, unassigned) [Example 207] | System = A. baumannii CDC-0083 producing NDM-1, PER-7, OXA-23, and OXA-69 | MIC = ____
**Result** > 128 µg/mL

**Query** Form: Entry = NC(C(=O)N[C@H]1Cc2ccc(F)c(C(=O)O)c2OB1O)c1c(F)cc(O)c(O)c1Cl (stereo partly shown) [Example 25] | System = A. baumannii CDC-0083 producing NDM-1, PER-7, OXA-23, and OXA-69 | MIC = ____
**Result** 32 to 64 µg/mL
